Test system: RARa homodimer (NR concentration 270 nM)
protocol summary: PBM binding z-score (relative to random genomic background probes); higher = stronger binding; sequences stand for … in GC…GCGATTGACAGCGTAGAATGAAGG
Classes (PBM binding z-score): low interval = under -0.9, middle interval = from -0.9 up to 0.4, high interval = 0.4 and over

biosequence=TCTGCTAGGTCAACGATGGGCAGCTAATCTGCTA assigned_class="low interval"
biosequence=CTCGAAAGGTCTGTTGAGGTGAGTATACGGATAA assigned_class="middle interval"
biosequence=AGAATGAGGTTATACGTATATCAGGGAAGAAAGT assigned_class="high interval"
biosequence=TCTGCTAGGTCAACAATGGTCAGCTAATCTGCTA assigned_class="middle interval"
biosequence=ATATGTACGTTACATCCGGGTCATTCAGGCTATG assigned_class="high interval"
biosequence=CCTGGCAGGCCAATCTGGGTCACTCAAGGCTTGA assigned_class="low interval"
biosequence=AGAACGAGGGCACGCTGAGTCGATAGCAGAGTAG assigned_class="middle interval"
biosequence=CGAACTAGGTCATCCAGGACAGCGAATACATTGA assigned_class="middle interval"

Input line: Which category does the recorded PBM binding z-score put AGTCAAAGTTCAGGACGATGTAACGTAAAGCACG in?
Output line: high interval

Input line: Dear colleague, I would appreciate it if you could identify the bin for CGTCCCAGGTCAGAGAGGTCAGTGAATGCCGAGT and reply at your convenience.
Output line: high interval

Input line: Note: place this sequence into its band. Item: CCTATTGGGCCATCAGGTCATTGATATCAACGTT
Output line: middle interval

Input line: Class for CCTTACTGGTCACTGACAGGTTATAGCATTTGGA ?
Output line: high interval

Input line: Which band does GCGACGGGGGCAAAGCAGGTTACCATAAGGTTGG fall in?
Output line: middle interval

Input line: Field: class (PBM binding z-score) — entry: GCTCGGAGGACATGGTCAGAGCTTTGTCCGTAGA
Output line: low interval

Input line: For the record TCTGCTAGGTCAGTTGGTCACCTAACGAGCTGCC , report the class its PBM binding z-score corresponds to.
Output line: low interval

Input line: Classify this sequence: TCTGCTAGGTCAGTTGGTCAGCTATCGAGCTGCC
Output line: low interval

Input line: Hi, small favor: classify AGAATGTGGTTATACGTAGATCAGGGAAGAAAGT by its PBM binding z-score when you get a moment.
Output line: high interval
